Reported koff values are given for each entry in this list.
# Experimental system: T1, human serum albumin (human, UniProt P02768 25-609)
# T1 construct: Bought protein, immobilized on a CM5 chip by amine coupling; also called Human SA
# Method: SPR (Biacore 8K), albumin immobilized on CM5 chip, 25 C, 1:1 kinetic fit
Report the figure in s⁻¹ without appending any unit label.

Take a look at these entries with their results.
RLN Analog 12 (other, Single-chain fusion: VHH - (G4Q)5 L1 - RLN2 B chain (desB1) - L2 of thirteen residues - RLN2 A chain (desA1-4)) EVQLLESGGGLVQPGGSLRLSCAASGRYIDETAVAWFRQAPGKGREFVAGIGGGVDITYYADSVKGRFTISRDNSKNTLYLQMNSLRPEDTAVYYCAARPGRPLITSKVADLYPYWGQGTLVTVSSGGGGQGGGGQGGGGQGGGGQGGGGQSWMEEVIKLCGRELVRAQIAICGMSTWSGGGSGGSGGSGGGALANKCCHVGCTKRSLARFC ... 0.00019
RLN Analog 5 (other, Single-chain fusion: RLN2 B chain (desB1) - L2 - RLN2 A chain - (G4Q)5 L1 - VHH (C-terminal)) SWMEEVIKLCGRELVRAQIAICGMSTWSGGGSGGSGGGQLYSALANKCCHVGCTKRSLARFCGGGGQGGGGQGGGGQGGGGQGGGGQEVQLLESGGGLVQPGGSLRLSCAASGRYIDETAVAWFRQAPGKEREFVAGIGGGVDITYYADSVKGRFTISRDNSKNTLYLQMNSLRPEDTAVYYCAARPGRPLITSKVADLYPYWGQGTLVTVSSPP ... 0.00026

Read the next record carefully.
Find the recorded koff belonging to RLN Analog 6 (other, Single-chain fusion: RLN2 B chain (desB1) - L2 - RLN2 A chain - PGPQ-repeat L1 - VHH (C-terminal)) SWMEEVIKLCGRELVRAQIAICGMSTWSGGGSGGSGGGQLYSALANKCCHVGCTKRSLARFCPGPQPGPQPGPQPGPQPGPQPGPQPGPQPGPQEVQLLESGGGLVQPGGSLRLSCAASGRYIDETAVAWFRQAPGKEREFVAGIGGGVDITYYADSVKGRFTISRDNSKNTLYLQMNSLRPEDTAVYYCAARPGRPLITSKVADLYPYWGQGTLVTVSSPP and report it.
0.00024
